These entries and their values trace back to patent US9345682B2.

Molecular target: Full length STAT3 (Homo sapiens, UniProt P40763)
Construct: Full-length GST-Stat3, immobilized to glutathione-Sepharose beads, is used to screen a display peptide library; made in house; host or cells: E. coli
Sequence (P40763 whole entry, species assumed): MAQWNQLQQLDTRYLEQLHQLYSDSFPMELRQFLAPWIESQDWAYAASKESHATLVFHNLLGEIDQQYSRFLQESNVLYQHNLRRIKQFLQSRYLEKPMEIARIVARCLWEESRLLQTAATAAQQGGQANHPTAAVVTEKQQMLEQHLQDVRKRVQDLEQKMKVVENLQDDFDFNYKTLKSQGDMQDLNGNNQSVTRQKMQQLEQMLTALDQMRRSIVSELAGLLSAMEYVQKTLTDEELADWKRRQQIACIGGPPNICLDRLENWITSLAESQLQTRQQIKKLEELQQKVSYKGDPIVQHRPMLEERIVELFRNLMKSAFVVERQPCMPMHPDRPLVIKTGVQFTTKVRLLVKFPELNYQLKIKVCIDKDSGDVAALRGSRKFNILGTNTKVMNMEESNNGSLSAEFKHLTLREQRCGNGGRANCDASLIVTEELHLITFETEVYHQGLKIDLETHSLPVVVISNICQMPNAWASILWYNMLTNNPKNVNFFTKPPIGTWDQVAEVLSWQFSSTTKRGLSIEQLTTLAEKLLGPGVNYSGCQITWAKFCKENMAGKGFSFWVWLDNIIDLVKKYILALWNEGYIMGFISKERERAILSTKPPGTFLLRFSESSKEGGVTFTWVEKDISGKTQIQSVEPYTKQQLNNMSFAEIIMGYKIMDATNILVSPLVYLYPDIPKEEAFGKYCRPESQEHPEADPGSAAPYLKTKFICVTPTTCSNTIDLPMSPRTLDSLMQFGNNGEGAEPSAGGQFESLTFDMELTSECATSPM
Experiment: Phage display panning, 12-mer peptide library, on full-length GST-Stat3
Assay type: binding
Hi there, I'd appreciate the recorded Frequency (out of 100 clones) for every entry that follows.
I only need the number, in %, no unit after it.

# input Tell me measured Frequency (out of 100 clones) for HY(S/P)PILVYQPSW please.
# output 25

# input Tell me measured Frequency (out of 100 clones) for YPAPQPLVTKTS (listed as Homo sapiens) please.
# output 8

# input Tell me measured Frequency (out of 100 clones) for FSYPLTRAPLNM (listed as Homo sapiens) please.
# output 8

# input Tell me measured Frequency (out of 100 clones) for QDVHLTQQSRYT (listed as Homo sapiens) please.
# output 13

# input Tell me measured Frequency (out of 100 clones) for SHPWNAQRELSV (listed as Homo sapiens) please.
# output 9
